test_protocol: The drug is tested on Bacteroides xylanisolvens strain: DSM18836 for biotransformation. The drug concentrations were measured before and after a 12-h incubation by liquid-chromatography-coupled mass spectrometry (LC–MS)
assay_conditions: 2 µM
endpoint_name: Bacterial Biotransformation

- compound: "CN(C)CC(c1ccc(O)cc1)C1(O)CCCCC1.O=C(O)CCC(=O)O (configuration not stated) [DESVENLAFAXINE SUCCINATE]"
  observed_result: "Compound NOT metabolized"
- compound: "CCC(=O)NCC[C@@H]1CCc2ccc3c(c21)CCO3"
  observed_result: "Compound metabolized"
- compound: "N[C@@H](Cc1ccc(N(CCCl)CCCl)cc1)C(=O)O"
  observed_result: "Compound metabolized"
- compound: "CCOC(=O)C1=C(C)NC(C)=C(C(=O)OC)C1c1cccc([N+](=O)[O-])c1 (configuration not stated)"
  observed_result: "Compound metabolized"
- compound: "CN1C(=O)CCS(=O)(=O)C1c1ccc(Cl)cc1 (configuration not stated)"
  observed_result: "Compound NOT metabolized"
- compound: "Cc1nc(Nc2ncc(C(=O)Nc3c(C)cccc3Cl)s2)cc(N2CCN(CCO)CC2)n1.O"
  observed_result: "Compound NOT metabolized"
- compound: "CCCc1nn(C)c2c(=O)[nH]c(-c3cc(S(=O)(=O)N4CCN(C)CC4)ccc3OCC)nc12.O=C(O)CC(O)(CC(=O)O)C(=O)O [SILDENAFIL CITRATE]"
  observed_result: "Compound metabolized"
- compound: "CC(C)(C)NC[C@H](O)COc1nsnc1N1CCOCC1.O=C(O)/C=C\\C(=O)O [TIMOLOL MALEATE]"
  observed_result: "Compound NOT metabolized"
- compound: "O=P1(N(CCCl)CCCl)NCCCO1 (configuration not stated) [CYCLOPHOSPHAMIDE ANHYDROUS]"
  observed_result: "Compound NOT metabolized"
- compound: "CN1CCC[C@@H]1CCO[C@](C)(c1ccccc1)c1ccc(Cl)cc1.O=C(O)/C=C/C(=O)O [CLEMASTINE FUMARATE]"
  observed_result: "Compound metabolized"
- compound: "CN1CCN(C(=O)O[C@H]2c3nccnc3C(=O)N2c2ccc(Cl)cn2)CC1"
  observed_result: "Compound NOT metabolized"
- compound: "CCN(CC)CCNC(C(=O)OCCC(C)C)c1ccccc1.Cl.Cl (configuration not stated)"
  observed_result: "Compound NOT metabolized"
- compound: "CC(C)[C@H]1CC[C@H](C(=O)N[C@H](Cc2ccccc2)C(=O)O)CC1 [NATEGLINIDE]"
  observed_result: "Compound NOT metabolized"
- compound: "CNCC[C@H](Oc1cccc2ccccc12)c1cccs1"
  observed_result: "Compound metabolized"
- compound: "NC(CO)(CO)CO.O=C(c1ccccc1)c1ccc2n1CCC2C(=O)O (configuration not stated)"
  observed_result: "Compound metabolized"
- compound: "C[C@@H]1C[C@H]2[C@@H]3CCC4=CC(=O)C=C[C@]4(C)[C@@]3(F)[C@@H](O)C[C@]2(C)[C@@]1(O)C(=O)CO"
  observed_result: "Compound metabolized"
- compound: "CC(=O)SCC(Cc1ccccc1)C(=O)NCC(=O)OCc1ccccc1 (configuration not stated)"
  observed_result: "Compound metabolized"
- compound: "CC[C@H](C)C(=O)O[C@H]1CCC=C2C=C[C@H](C)[C@H](CC[C@@H]3C[C@@H](O)CC(=O)O3)[C@H]21"
  observed_result: "Compound metabolized"
- compound: "CC(=O)Nc1ccc(OC(C)=O)cc1 [DIACETAMATE]"
  observed_result: "Compound metabolized"
- compound: "CCCCC(=O)O[C@]1(C(=O)CO)[C@@H](C)C[C@H]2[C@@H]3CCC4=CC(=O)C=C[C@]4(C)[C@@]3(F)[C@@H](O)C[C@@]21C [BETAMETHASONE VALERATE]"
  observed_result: "Compound metabolized"
- compound: "CCC(C)n1ncn(-c2ccc(N3CCN(c4ccc(OCC5COC(Cn6cncn6)(c6ccc(Cl)cc6Cl)O5)cc4)CC3)cc2)c1=O (configuration not stated)"
  observed_result: "Compound NOT metabolized"
- compound: "CCN(CC)CCOC(=O)C1(C2CCCCC2)CCCCC1"
  observed_result: "Compound metabolized"
- compound: "N#Cc1ccc2[nH]cc(CCCCN3CCN(c4ccc5oc(C(N)=O)cc5c4)CC3)c2c1"
  observed_result: "Compound metabolized"
- compound: "CC(=O)OCC(=O)NCCCOc1cccc(CN2CCCCC2)c1 [ROXATIDINE ACETATE]"
  observed_result: "Compound metabolized"
- compound: "C[C@]12CCC(=O)C=C1[C@@H]1C[C@@H]1[C@H]1[C@@H]3[C@@H]4C[C@@H]4[C@@]4(CCC(=O)O4)[C@@]3(C)CC[C@@H]12"
  observed_result: "Compound metabolized"
- compound: "CN(C)C(=O)C(CCN1CCC(O)(c2ccc(Cl)cc2)CC1)(c1ccccc1)c1ccccc1 [LOPERAMIDE]"
  observed_result: "Compound metabolized"
- compound: "O=c1[nH]c2ccccc2n1CCCN1CCC(n2c(=O)[nH]c3cc(Cl)ccc32)CC1"
  observed_result: "Compound NOT metabolized"
- compound: "CC(C)(C)NCC(O)COc1cccc2c1CC(O)C(O)C2 (configuration not stated)"
  observed_result: "Compound NOT metabolized"
- compound: "CCOC(=O)[C@H](CCc1ccccc1)N[C@@H](C)C(=O)N1[C@H](C(=O)O)C[C@@H]2CCC[C@@H]21"
  observed_result: "Compound metabolized"
- compound: "CCCN1C[C@H](CSC)C[C@@H]2c3cccc4[nH]cc(c34)C[C@H]21.CS(=O)(=O)O [PERGOLIDE MESYLATE]"
  observed_result: "Compound NOT metabolized"
- compound: "COc1c2occc2cc2ccc(=O)oc12"
  observed_result: "Compound metabolized"
- compound: "CC(C)(C)NC[C@H](O)COc1ccccc1C1CCCC1.CC(C)(C)NC[C@H](O)COc1ccccc1C1CCCC1.O=S(=O)(O)O [PENBUTOLOL SULFATE]"
  observed_result: "Compound NOT metabolized"

Taken from ChEMBL document CHEMBL5303573.
